Values were extracted from ChEMBL document CHEMBL1158870.

Test system: MDA-MB-231
Test: Cytotoxicity against human MDA-MB-231 cells by SRB assay
Type: functional
Property Label: GI50 (µM)
The answer is to be given in µM; state only the numeric part.

The following molecules have reported results that may help.
// lookup GI50 for COC(C)(C)[C@@H](O)[C@H]1C[C@H](C)[C@@]2(CC[C@]3(C)[C@@H]2CC[C@@H]2[C@@]4(C)CC[C@@H](OC(C)=O)C(C)(C)[C@@H]4C[C@@H](O[C@@H]4O[C@H](COC(C)=O)[C@@H](O)[C@H](O)[C@H]4O)[C@]23C)O1
11

// lookup GI50 for C=C(C)[C@@H](O)[C@H](O)C[C@H](C)[C@@H]1CC[C@]2(C)C1=CC[C@@H]1[C@@]3(C)CC[C@@H](OC(C)=O)C(C)(C)[C@@H]3C[C@@H](O[C@@H]3O[C@H](COC(C)=O)[C@@H](O)[C@H](O)[C@H]3O)[C@]12C
1.86

// lookup GI50 for COC(C)(C)[C@@H](O)[C@H](O)C[C@H](C)C1=C2CC[C@@H]3[C@@]4(C)CC[C@@H](OC(C)=O)C(C)(C)[C@@H]4C[C@@H](O[C@@H]4O[C@H](COC(C)=O)[C@@H](O)[C@H](O)[C@H]4O)[C@@]3(C)[C@]2(C)CC1
11.5

Turning to the following molecule.
// lookup GI50 for CC(=O)OC[C@H]1O[C@@H](O[C@@H]2C[C@H]3C(C)(C)[C@H](OC(C)=O)CC[C@]3(C)[C@H]3CC[C@@]45C[C@H](O)C[C@H](C)[C@@H]4CC=C5[C@@]32C)[C@H](O)[C@@H](O)[C@@H]1O
2.04
